# assay_protocol: Restrictive medium S. cerevisiae growth inhibition, OD615, pilot screen of yeast lifespan reduction project, restrictive growth control (AID 706);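 further: modified DeaD lifespan yeast strain shifted to restrictive glucose medium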
# test_parameters: OD615, 48 h, at 10 µM, stronger effect = higher value
Activity calls are given as the source filed them.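 How the source made its calls: active means growth inhibition above a set limit, 3 SD over mean compound inhibition, in both replicates (cut at about 43% in these data); inconclusive means above the limit in only one replicate; inactive means at or below the limit in both replicates.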
property_measured: growth inhibition

Q: # input compound: `CC(=O)c1ccc(OCC(O)COc2ccc(C(C)=O)cc2)cc1` ; wanted: its growth inhibition
A: -4.87% (inactive)

Q: Item under review: `Cc1cc2cc(CN(Cc3ccc4c(c3)OCO4)C(=O)c3cnccn3)c3nnnn3c2cc1C` . Reported growth inhibition?
A: 6.71% (inactive)

Q: Reported growth inhibition, compound `CC(C)(Oc1ccc(-c2ccco2)cc1)C(=O)O` : ____
A: 0.705% (inactive)

Q: Entry CCn1cc(C(=O)NCCCN2CC(C)CC(C)C2)c2cc(OC)c(OC)cc2c1=O (stereo not drawn) : reported growth inhibition = ?
A: -7.97% (inactive)

Q: For `c1nc(NCCN2CCOCC2)c2sc3nc(N4CCOCC4)c4c(c3c2n1)CCC4` , what is its reported growth inhibition?
A: 6.11% (inactive)

Q: // query growth inhibition value for entry CC12COC3(C(=O)Nc4cccnc4)CC1CCC32C (stereo not drawn)
A: 1.04% (inactive)

Q: For the compound shown here, `O=C(Nc1ccc(Cl)cc1)c1ccncc1` , give the reported growth inhibition.
A: -3.32% (inactive)

Q: Name the recorded growth inhibition for O=C(C1CCCN(S(=O)(=O)c2ccc(F)cc2)C1)N(Cc1cccs1)C1CC1 (stereo not drawn) .
A: -6.14% (inactive)

Q: Need growth inhibition of `CC1=CC(C)(C)Nc2ccc(OC(=O)c3ccco3)cc21` , thanks.
A: -5.68% (inactive)

Q: Which measured growth inhibition value corresponds to C=CCn1c(SC(CCO)C(=O)NCc2ccco2)nc2sc3c(c2c1=O)CCC3 (stereo not drawn) ?
A: 0.375% (inactive)

Q: Sample `CCOc1ccc(-n2c(SCC(=O)Nc3ccc4c(c3)OCO4)nc3c(c2=O)SCC3)cc1` — what was its growth inhibition?
A: -5.91% (inactive)

Q: Recorded growth inhibition of Cc1ccc(N2CC(C(=O)Nc3cccc(F)c3)CC2=O)cc1 (stereo not drawn) , please.
A: -5.71% (inactive)

Q: Could you tell me which growth inhibition is on file for `O=C(Nc1c(C(=O)N2CCCC2)cnn1-c1ccccc1)c1cccc(F)c1` ?
A: -1.27% (inactive)

Q: Can you look up the measured growth inhibition of `CC(C)n1c(CNC(=O)c2ccccc2)nc2ccccc21` for me?
A: 9.14% (inactive)

Q: Recorded growth inhibition for O=C(CCCCCN1C(=O)C2C3C=CC(C3)C2C1=O)Nc1nccs1 (stereo not drawn) , please?
A: -2.41% (inactive)

Q: So what does the record say about growth inhibition for `Cc1cccc(-c2nnc(-c3ccccc3)o2)c1` ?
A: -3.2% (inactive)

Q: What value of growth inhibition has been reported for the following compound? `CCN(CC)C(=O)CSc1nsc(SCC(=O)N(CC)CC)c1C#N`
A: 6.27% (inactive)

Q: Entry under review: `CCCc1nc(SCc2ccccn2)c2c(=O)n(C)c(=O)n(C)c2n1` . Reported growth inhibition?
A: -0.14% (inactive)

Q: Value lookup for growth inhibition; key = CC1Cc2ccccc2N1C(=O)CCS(=O)(=O)c1cccc2nonc12 (stereo not drawn)
A: 10.7% (inactive)

Q: Quick one: growth inhibition for `CCSC1=N/C(=C\c2ccc(C(=O)O)cc2)C(=O)S1` ?
A: -3.52% (inactive)

Q: Name the reported growth inhibition value associated with the compound CCCCNC(=O)C1c2cc(OC)c(OC)cc2C(=O)N(C)C1c1ccc(OC)cc1 (stereo not drawn)
A: -7.21% (inactive)

Q: // query growth inhibition value for entry O=S(=O)(NC1CCCCC1NCc1ccco1)c1ccccc1 (stereo not drawn)
A: -2.12% (inactive)

Q: growth inhibition lookup needed for COc1ccc(CNC(=O)c2ccc(NC(=O)C3CCCO3)cc2)cc1 (stereo not drawn) , thanks.
A: -0.99% (inactive)

###

# assay_protocol: reducers of endogenous Her2 protein level, primary screen, SKBR3 breast tumor cells, AlphaScreen, ATP viability (AID 461);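 further: percent of carrier control wells set as 100% viability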
# test_parameters: 18-24 h, measured here: SKBR3 viability, ATP luminescence, at 10 µM
Please go through the items and note down their viability.
Response body: numeric value in %, unit text excluded.

Q: # lookup: viability of `Cc1cccc(Cn2c(=O)n(Cc3ccco3)c(=O)c3ccccc32)c1`
A: 87

Q: Field request: viability | item: `CC(C)=CC(=O)N1CCCc2ccccc21`
A: 112

Q: Return reported viability; argument: `Cc1ccc(C(=O)OCC(=O)c2ccc(Cl)s2)s1`
A: 93.5

Q: Data request, read-out viability, for `C=CCOc1nc2c(c(=O)n(C)c(=O)n2C)n1Cc1c(Cl)cccc1Cl`
A: 97.5

Q: Entry `Cn1c(-c2ccccc2)cc(=O)c2ccccc21` : reported viability = ?
A: 98.5

Q: Fill in the blank: the reported viability of `O=C(c1ccccc1Oc1nnnn1-c1ccccc1)N1CCOCC1` is ____.
A: 89.5

Q: Quick check: viability of `CCOc1ccc(OCC)c(NC(=O)CCCN2C(=O)c3cccnc3C2=O)c1` ?
A: 110

Q: For `Cn1c(=O)[nH]c(=O)c2c1nc(N1CCNCC1)n2CCOc1ccccc1` , what is its reported viability?
A: 79.5

Q: Reported viability, compound `O=C(NCCc1c[nH]c2ccccc12)c1ccc(S(=O)(=O)NCc2ccco2)cc1` : ____
A: 93.5

Q: Need viability, item `CCCCOc1ccc(CC(=O)NO)cc1`
A: 122

Q: For the compound `CCCSc1nc2c(c(=O)[nH]c(=O)n2C)n1CCc1ccccc1` , what viability is on record?
A: 89.5

Q: What measured viability goes with CCC1(NC(C)=O)CC2CC1CC2NC(C)=O (configuration not stated) ?
A: 94.5

###

# assay_protocol: growth suppression of PTEN-deleted HCT116, pilot screen, cell-based, HCT116 clonal line, CellTiter-Glo (AID 824);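 further: 0% = 20 µM Hyamine control and 100% = vehicle cell control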
# test_parameters: 60 h, at 10 µM, stronger effect = lower value
Inconclusive results are not listed.
property_measured: viability (%)
Numeric only. Scale: %

Q: // query viability value for entry `CCCn1c2ccccc2c2cc(C(=O)O)ccc21`
A: 93.5

Q: Which value of viability has been reported for `CCC(=O)N1CCc2cc(Br)cc(S(=O)(=O)NCc3ccco3)c21` in the records?
A: 96.8

Q: Using the record for `CC(C)CN(CC(C)C)c1nnc(N)s1` , report its viability.
A: 99.5

Q: Look up viability: `CCOc1ccc(N=Cc2c(O)cc(C)oc2=O)cc1`
A: 101

Q: // lookup viability for `Cc1cccc(-c2nnc(-c3ccccc3)o2)c1`
A: 81.7

Q: Entry under review: `COc1cc(=O)[nH]c(=O)n1C(=O)Cc1ccccc1` . Reported viability?
A: 104

Q: Can you look up the measured viability of `O=c1c2cnn(-c3ccccc3)c2ncn1Cc1ccccc1F` for me?
A: 88.6

Q: Item `COCCn1c(CN(C)Cc2ccccc2)nc2c1c(=O)n(C)c(=O)n2C` has what recorded viability?
A: 91.5

Q: Which viability is reported for this compound? `CCOc1ccc(Cn2nnc(C(=O)NCCc3ccccc3)c2N)cc1`
A: 89.9

Q: Field request: viability | item: `O=C(CSCC(=O)NC1CC1)Nc1ccccc1`
A: 98.7

Q: Would you kindly share the measured viability for Cc1ccc(S(=O)(=O)c2nc(-c3ccc(F)cc3)oc2SCC(=O)NCC2CCCO2)cc1 (configuration not stated) ?
A: 15.3

Q: Request the reported viability associated with `Cc1nnc(SCC(=O)N2CCOCC2)n1C`
A: 101

###

# assay_protocol: inhibitors of the yeast RAM network, pilot screen, dse1pr::URA3 reporter, 5-FOA selection (AID 869);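 further: 0% = DMSO wells with no growth and 100% = 10 µM 1-NA-PP1 with full growth; RAM network block rescues cells from 5-FOA so hits raise OD615 growth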
# test_parameters: S. cerevisiae dse1pr::URA3 5-FOA growth, OD615, 2 d; at 10 µM; stronger effect = higher value; strain carries analog-sensitive mutant Cbk1 kinase
For each entry below, report its inhibition value.
Answer format: numeric, % implied, no suffix.

Q: Item CCC(C)(C(=O)NC1CCCC1)N(C(=O)CNC(C)=O)c1ccccc1 (stereo unspecified) has what recorded inhibition?
A: 3.23

Q: Would you mind telling me what inhibition value was observed for `CCOC(=O)Nc1cc(C(=O)OCC)c(C)nc1C` ?
A: 1.25

Q: Dear colleague, I am looking for the recorded inhibition of the following molecule: `CCOC(=O)N1CCN(C(=O)CN(c2ccc(Cl)c(C(F)(F)F)c2)S(C)(=O)=O)CC1`
A: -0.06

Q: What inhibition value was documented for this molecule, `CCOC(=O)c1cc(-c2ccc(C)o2)nn1CCC#N` ?
A: 0.86

Q: Fill in the blank: the reported inhibition of `Cc1ccc(/C=c2/sc3nnc(-c4ccccc4Cl)n3c2=O)o1` is ____.
A: 0.785

Q: Give its inhibition value. Item: c1ccc(N2CCN(C3CCSC3)CC2)cc1 (stereo unspecified)
A: 1.05

Q: Please report the recorded inhibition for `N#Cc1ccc(N2CCN(C(=O)c3cccc(F)c3)CC2)c(F)c1` .
A: 2.12

Q: I am curious: what inhibition value has been reported for COC(=O)c1ccc2c(c1)N(Cc1cc(C)ccc1C)C(=O)c1ccccc1S2=O (stereo unspecified) ?
A: 0.92

Q: Suppose we examine the molecule `CNC(=O)c1ccc(-c2sc3nc(N4CCOCC4)c4c(c3c2N)CCCC4)o1` ; what inhibition value has been reported?
A: -0.54

Q: For the molecule shown here, CCOc1ccc(C2CC(c3cccc(Cl)c3)n3nc(N)nc3N2)cc1 (stereo unspecified) , give the reported inhibition.
A: 1.14

Q: Which inhibition value is on record for `O=C(c1ccccc1Cl)N1CCC(c2nc3c(nnn3Cc3ccco3)c(=O)[nH]2)CC1` ?
A: 0.69
